tested on: Vero E6 infected with SARS-CoV-2; test: SARS-CoV-2 infection rate relative to infected DMSO; higher = more infection, active = 60 or less; conditions: 24 h
Each entry below carries its reported SARS-CoV-2 infection rate.
Give the value in % but do not write % after it.

// below: answered compounds
- COMPOUND: "C[C@H](NC(=O)/C(C#N)=C/c1cccc(Br)n1)c1ccccc1 (0.833333 µM)"
  ASSAYED TARGET: "Vero E6 infected with SARS-CoV-2"
  OBSERVED PROPERTY: "SARS-CoV-2 infection rate"
  QUANTITY UNIT: "%"
  RESULT: 118
- COMPOUND: "CC(=O)c1ccc2c(c1)[C@H](NC(=O)c1ccc(F)c(Cl)c1)[C@H](O)C(C)(C)O2 [tonabersat] (10 µM)"
  ASSAYED TARGET: "Vero E6 infected with SARS-CoV-2"
  OBSERVED PROPERTY: "SARS-CoV-2 infection rate"
  QUANTITY UNIT: "%"
  RESULT: 94.5
- COMPOUND: "Cc1cccc(NC(=O)CN2CCC(c3ccccn3)CC2)c1 (10 µM)"
  ASSAYED TARGET: "Vero E6 infected with SARS-CoV-2"
  OBSERVED PROPERTY: "SARS-CoV-2 infection rate"
  QUANTITY UNIT: "%"
  RESULT: 108

Item COc1ccccc1N1CCN(CCN2C(=O)CC3(CCCC3)CC2=O)CC1 (10 µM) ; assay system Vero E6 infected with SARS-CoV-2; SARS-CoV-2 infection rate reported as 116

Item COc1cc2c(c(OC)c1OC)-c1c(cc3c(c1OC)OCO3)C[C@H](C)[C@@](C)(O)C2 [schisandrol-B] (10 µM) ; assay system Vero E6 infected with SARS-CoV-2; SARS-CoV-2 infection rate reported as 106

Item CC[C@@H]1C(=O)N(C)c2cnc(Nc3ccc(C(=O)NC4CCN(C)CC4)cc3OC)nc2N1C1CCCC1 (10 µM) ; assay system Vero E6 infected with SARS-CoV-2; SARS-CoV-2 infection rate reported as 104

Item CCn1cc(C(=O)O)c(=O)c2ccc(C)nc21 [nalidixic-acid] (10 µM) ; assay system Vero E6 infected with SARS-CoV-2; SARS-CoV-2 infection rate reported as 106

Item COc1ccc(CNC(=O)/C=C/c2ccc3[nH]cc(CCN(C)C)c3c2)cc1 (10 µM) ; assay system Vero E6 infected with SARS-CoV-2; SARS-CoV-2 infection rate reported as 88.5

Item CCCC[C@H]1C(=O)N(c2ccccc2)N(c2ccc(O)cc2)C1=O [oxyphenbutazone] (0.833333 µM) ; assay system Vero E6 infected with SARS-CoV-2; SARS-CoV-2 infection rate reported as 102

Item CC(=O)[C@H]1CC[C@H]2[C@@H]3CC=C4C[C@@H](OC(=O)CCC(=O)O)CC[C@]4(C)[C@H]3CC[C@]12C [pregnenolone-succinate] (10 µM) ; assay system Vero E6 infected with SARS-CoV-2; SARS-CoV-2 infection rate reported as 104

Item O=C1NC(=O)c2c1c(-c1ccccc1)cc1[nH]c3ccc(O)cc3c21 (0.833333 µM) ; assay system Vero E6 infected with SARS-CoV-2; SARS-CoV-2 infection rate reported as 93.5

Item COc1ccc(C2CC(c3c(O)cc(C)oc3=O)=NCCS2)c(OC)c1 (stereo unspecified) (10 µM) ; assay system Vero E6 infected with SARS-CoV-2; SARS-CoV-2 infection rate reported as 101

Item O=C(CCBr)N1CCN(C(=O)CCBr)CC1 [pipobroman] (10 µM) ; assay system Vero E6 infected with SARS-CoV-2; SARS-CoV-2 infection rate reported as 98.5
